target: RSV F protein on respiratory syncytial virus (RSV-Long strain) (respiratory syncytial virus (Long strain)) (UniProt P12568); assay: cell-based or functional assay
Sequence (P12568 26-574): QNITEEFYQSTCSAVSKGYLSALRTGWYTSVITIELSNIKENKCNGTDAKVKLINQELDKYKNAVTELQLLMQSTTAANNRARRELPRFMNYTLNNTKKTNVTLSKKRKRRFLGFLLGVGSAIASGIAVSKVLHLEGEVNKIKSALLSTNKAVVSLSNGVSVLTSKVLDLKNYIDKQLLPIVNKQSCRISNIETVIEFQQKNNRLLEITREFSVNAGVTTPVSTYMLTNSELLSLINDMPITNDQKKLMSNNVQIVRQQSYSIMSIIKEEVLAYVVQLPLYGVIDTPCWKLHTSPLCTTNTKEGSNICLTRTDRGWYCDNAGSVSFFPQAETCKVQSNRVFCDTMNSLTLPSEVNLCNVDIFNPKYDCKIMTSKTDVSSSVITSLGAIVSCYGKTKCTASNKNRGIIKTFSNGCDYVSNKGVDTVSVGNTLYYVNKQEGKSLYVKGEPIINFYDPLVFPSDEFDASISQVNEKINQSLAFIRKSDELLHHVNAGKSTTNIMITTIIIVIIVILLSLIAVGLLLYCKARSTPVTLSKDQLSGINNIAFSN
Observable: Mean IC50 (Curve), RSV microneutralization (µg/mL)
Numbers only, in µg/mL.

These recorded examples may help you get a feel for the data.
- Binder: "A8c7 monoclonal antibody (antibody, V domains shown) VH: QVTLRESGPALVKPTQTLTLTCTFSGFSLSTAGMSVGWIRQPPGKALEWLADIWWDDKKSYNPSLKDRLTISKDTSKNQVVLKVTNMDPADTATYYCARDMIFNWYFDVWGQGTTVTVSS VL: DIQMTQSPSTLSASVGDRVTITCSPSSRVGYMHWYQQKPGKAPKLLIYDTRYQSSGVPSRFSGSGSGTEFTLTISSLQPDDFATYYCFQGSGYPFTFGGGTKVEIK"
  Value Reported: 0.0337
- Binder: "A1h5 Fab fragment (Fab, V domains shown) VH: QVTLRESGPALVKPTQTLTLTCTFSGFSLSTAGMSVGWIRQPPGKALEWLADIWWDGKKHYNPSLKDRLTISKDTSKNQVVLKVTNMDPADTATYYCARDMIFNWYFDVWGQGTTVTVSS VL: DIQMTQSPSTLSASVGDRVTITCSLSSSVGYMHWYQQKPGKAPKLLIYDTFFHRSGVPSRFSGSGSGTEFTLTISSLQPDDFATYYCFQGSGYPFTFGGGTKVEIK"
  Value Reported: 0.194

Moving on to the next binder.
Qu. Please give the measured Mean IC50 (Curve), RSV microneutralization for this binder: A4B4 monoclonal antibody (antibody, V domains shown) VH: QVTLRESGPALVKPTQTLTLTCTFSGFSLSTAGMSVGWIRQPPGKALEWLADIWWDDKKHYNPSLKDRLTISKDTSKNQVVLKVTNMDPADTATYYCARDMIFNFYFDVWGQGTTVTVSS VL: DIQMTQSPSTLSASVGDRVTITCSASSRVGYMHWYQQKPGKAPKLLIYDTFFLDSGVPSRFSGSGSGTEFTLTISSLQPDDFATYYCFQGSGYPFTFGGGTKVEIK
Ans. 0.0171
